Hey, just so you know, these numbers are from the supplement of paper PMC12667976.

B1: library; numbered along this chain (parent)
chain: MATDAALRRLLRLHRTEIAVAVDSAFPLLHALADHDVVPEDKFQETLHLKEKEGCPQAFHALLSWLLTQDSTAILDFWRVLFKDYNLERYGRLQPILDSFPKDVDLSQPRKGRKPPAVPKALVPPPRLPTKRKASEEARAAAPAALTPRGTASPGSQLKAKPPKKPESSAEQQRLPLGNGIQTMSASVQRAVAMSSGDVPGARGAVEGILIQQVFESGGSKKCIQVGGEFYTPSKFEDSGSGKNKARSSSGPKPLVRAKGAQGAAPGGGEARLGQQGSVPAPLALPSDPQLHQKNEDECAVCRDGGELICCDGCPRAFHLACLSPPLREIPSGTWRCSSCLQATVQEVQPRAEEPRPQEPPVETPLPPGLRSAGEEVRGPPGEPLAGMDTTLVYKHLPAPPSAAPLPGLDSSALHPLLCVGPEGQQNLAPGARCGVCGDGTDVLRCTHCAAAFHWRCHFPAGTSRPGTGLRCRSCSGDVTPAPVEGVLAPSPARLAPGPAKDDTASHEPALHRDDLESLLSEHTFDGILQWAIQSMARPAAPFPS

variants of: B1; test: AIRE transcriptional activation functional score (insulin promoter-GFP; nonsense median 0, synonymous median 1) (normalised score); higher = higher AIRE activity (more reporter activation); conditions: with insulin promoter-GFP reporter in HEK293
AIRE transcriptional activation functional score of 0.8 or higher: yes. Under 0.8: no.

mutant=Q108I assigned_category=no
mutant=S278H assigned_category=yes
mutant=G440R assigned_category=no
mutant=H448W assigned_category=no
mutant=P266V assigned_category=yes
mutant=V123I assigned_category=yes
mutant=T504S assigned_category=yes
mutant=F459H assigned_category=yes
mutant=C302I assigned_category=no
mutant=K131I assigned_category=no
mutant=S474L assigned_category=no
mutant=Y90D assigned_category=no
mutant=S217K assigned_category=no
mutant=S412F assigned_category=yes
mutant=L392A assigned_category=no
mutant=I209G assigned_category=no
mutant=P109M assigned_category=yes
mutant=S135I assigned_category=yes
mutant=L7D assigned_category=no
mutant=I533D assigned_category=no
mutant=Q276A assigned_category=yes
mutant=G382L assigned_category=no
mutant=A451T assigned_category=no
mutant=K159T assigned_category=yes
mutant=R351W assigned_category=yes
mutant=A5N assigned_category=no
mutant=D312L assigned_category=yes
mutant=A21H assigned_category=no
mutant=H30W assigned_category=no
mutant=C434M assigned_category=no
